Target: EGFR (Homo sapiens, UniProt P00533)
Assay: 125I-EGF whole-cell saturation binding, ZR-75-9a1 FCSdcc 2 weeks, Woolf analysis
MEASURED PARAMETER: pKd
Numbers only, as −log10 of the molar value.

QUERY: Entry EGF (protein) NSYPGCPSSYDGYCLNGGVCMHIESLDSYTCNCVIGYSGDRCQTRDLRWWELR needs its pKd filled in; supply it.
RESULT: 9.55
